Test: chemical genetic growth profiling, strain panel (AID 1159580);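 note: tested at 20 µM; growth read once vehicle control cultures reached saturation at 30 °C; 1 = growth at the plate median or of vehicle wells; lower values mean less growth of the strain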
Conditions: S. cerevisiae deletion strains, growth OD, locus YNL128W, strain TEP1, active compounds read low
About 2,000 (36%) of roughly 5,500 compounds were called active. Roughly 18% stayed inconclusive and do not appear here. The list shows a part of the results.
Items are presented alongside their recorded normalized growth.
Reply briefly: the number, and no unit.

Use these answered entries as a reference point.
Qu. State, in one line, measured normalized growth of O=C(c1c(F)cccc1F)N1CCN(C(=O)c2c(F)cccc2F)CC1
Ans. 0.978

Qu. State, in one line, measured normalized growth of CC[C@H]1OC(=O)[C@H](C)[C@@H](O[C@H]2C[C@@](C)(OC)[C@@H](O)[C@H](C)O2)[C@H](C)[C@@H](O[C@@H]2O[C@H](C)C[C@H](N(C)C)[C@H]2O)[C@](C)(OC)C[C@@H](C)C(=O)[C@H](C)[C@@H](O)[C@]1(C)O
Ans. 0.979

Qu. State, in one line, measured normalized growth of COc1ccc(OC)c(C(O)CNC(=O)CN)c1 (centres undefined)
Ans. 0.983

Read the next record carefully.
Qu. State, in one line, measured normalized growth of CCCCCCCCCCC[C@@H](C[C@H]1OC(=O)[C@H]1CCCCCC)OC(=O)[C@@H](CC(C)C)NC=O
Ans. 1.02
